compound | melting point
COc1cc(OCc2ncccc2C(F)(F)F)ccc1-c1[nH]c(-c2ccc(Cl)nc2)nc1Br [Example 253] | 176 to 186 °C
Fc1ccc(-c2ncc(-c3ccc(OCc4ncc(C(F)(F)F)cc4F)cc3F)[nH]2)cn1 [Example 369] | 167 to 172 °C
COc1cc(OCc2ccc(Br)cc2F)ccc1-c1c[nH]c(C2CC2)n1 [Example 83] | 157 to 160 °C
COc1cc(OCc2ncc(C(F)(F)F)cc2F)ccc1-c1[nH]c(C2CC(F)(F)C2)nc1Cl [Example 353] | 167 to 169 °C
COc1cc(OCc2ccc(C(F)(F)F)cn2)ccc1-c1c(C)nc(-c2ccc(Cl)nc2)n1CC1CC1 [Example 157] | 145 to 148 °C
COc1cc(OCc2ncccc2C(F)(F)F)ccc1-c1[nH]c(C2CCC(F)(F)CC2)nc1Cl [Example 195] | 162 to 164 °C
COc1c(OCc2ccc(C(F)(F)F)nc2)ccc(-c2[nH]c(C3CCC(F)(F)CC3)nc2Br)c1OC [Example 199] | 162 to 165 °C
COc1cc(OCc2ccc(C(F)(F)F)cn2)ccc1-c1nc(-c2ccc(Cl)nc2)[nH]c1Cl [Example 235] | 180 to 182 °C

* * *

molecule | melting point
COc1cc(OCc2ccc(C(F)(F)F)nc2)ccc1-c1c(Cl)nc(-c2ccc(F)nc2)n1C | 138 to 140 °C
COc1cc(OCc2cc(C(F)(F)F)ccn2)ccc1-c1cnc(-c2ccc(F)nc2)[nH]1 | 183 to 186 °C
COc1cc(OCc2ccc(C(F)(F)F)nc2)ccc1-c1c(C)nc(-c2ccc(Cl)nc2)n1C | 148 to 150 °C
COc1cc(OC(C)c2ncc(Br)cc2F)ccc1-c1[nH]c(-c2ccc(F)nc2)nc1Cl (stereo not shown) | 173 to 175 °C

* * *

propertyName: melting point

compound | propertyName | valueReported
Oc1cc(OCc2ncc(C(F)(F)F)cc2F)ccc1-c1cnc(-c2ccc(F)nc2)[nH]1 [Example 406] | melting point | 202 to 207 °C
COc1cc(OCc2ncc(Cl)cc2F)ccc1-c1cnc(-c2ccc(F)nc2)[nH]1 [Example 141] | melting point | 174 to 176 °C
COc1cc(-c2nc(-c3ccc(Cl)nc3)[nH]c2C)ccc1OCc1ccc(C(F)(F)F)cn1 [Example 30] | melting point | 228 to 230 °C (dec.)
COc1cc(OCc2cccnc2C(F)(F)F)ccc1-c1[nH]c(-c2ccc(Cl)nc2)nc1Cl [Example 243] | melting point | 195 to 199 °C

* * *

- methodNotes: Solubility in gastric juice or intestinal juice model fluid (precipitation method using DMSO)
- Assay type: physicochemical
- assayContext: pH 1.2, simulated gastric fluid, kinetic from dmso stock, 1st fluid for Disintegration Test of Japanese Pharmacopoeia (pH: 1.2), room temperature, read-out: Solubility (μg/mL) 1st fluid
propertyName: solubility at 24 h

givenSmiles | valueReported
COc1cc(OCc2ccc(C(F)(F)F)nc2)ccc1-c1nc(C2CCCCC2)[nH]c1C | > 89 µg/mL
COc1cc(OCc2cnc(C)cn2)ccc1-c1c[nH]c(-c2ccc(F)nc2)n1 | 71.8 µg/mL
COc1cc(OCc2ncc(C(F)(F)F)cc2F)ccc1-c1cnc(C2CC(F)(F)C2)[nH]1 | 83.6 µg/mL
COc1cc(-c2nc(-c3ccc(F)nc3)[nH]c2Cl)ccc1OCc1ncccc1F | 76.9 µg/mL

* * *

compound | melting point
COc1cc(OCc2coc(C)n2)ccc1-c1c[nH]c(-c2ccc(Cl)nc2)n1 | 168 to 171 °C
COc1cc(-c2c[nH]c(-c3ccc(Cl)nc3)n2)ccc1OCc1cccc(F)n1 | 185 to 187 °C
COc1cc(OCc2cncc(C(F)(F)F)c2)ccc1-c1[nH]c(-c2ccc(Cl)nc2)nc1Cl | 198 to 201 °C
COc1cc(-c2[nH]c(C3CCC(F)(F)C3)nc2Cl)ccc1OCc1ccc(C(F)(F)F)cn1 (stereo not shown) | 159 to 161 °C

* * *

- methodNotes: Solubility in gastric juice or intestinal juice model fluid (precipitation method using DMSO)
- Assay type: physicochemical
- assayContext: pH 1.2, simulated gastric fluid, kinetic from dmso stock, 1st fluid for Disintegration Test of Japanese Pharmacopoeia (pH: 1.2), room temperature, read-out: Solubility (μg/mL) 1st fluid
propertyName: log10 of solubility at 24 h (log10 of the value in µg/mL)

compound | log10 of solubility at 24 h
COc1cc(-c2c[nH]c(C3CCCCC3)n2)ccc1OCc1ccc(C(F)(F)F)cn1 | 1.90
COc1cc(OCc2ncc(C(F)(F)F)cc2F)ccc1-c1cnc(C2CCC(F)(F)CC2)[nH]1 | 1.97
COc1cc(OCc2ncc(F)cc2F)ccc1-c1[nH]c(-c2ccc(Cl)nc2)nc1Br | 1.19
COc1cc(OCc2ccc(C(F)(F)F)cn2)ccc1-c1c[nH]c(-c2ccc(Cl)nc2)n1 | 0.94
COc1cc(-c2[nH]c(C3CCC3)nc2Cl)ccc1OCc1ncc(C(F)(F)F)cc1F | 1.95
COc1cc(O[C@H](C)c2ccc(C(F)(F)F)nc2)ccc1-c1cnc(-c2ccc(F)nc2)[nH]1 | 1.00
CCCCOC(C)n1cc(-c2ccc(OCc3ncc(C(F)(F)F)cc3F)cc2OC)nc1-c1ccc(F)nc1 (stereo not shown) | 1.98
COc1cc(OC(C)c2ncc(C(F)(F)F)cc2F)ccc1-c1[nH]c(-c2ccc(F)nc2)nc1Cl (stereo not shown) | 1.03
COc1cc(OCc2ncc(C(F)(F)F)cc2F)ccc1-c1[nH]c(C2CC(F)(F)C2)nc1Cl | 1.93
COc1cc(-c2cnc(C3CCC3)[nH]2)ccc1OCc1ncc(C(F)(F)F)cc1F | 1.91
COc1cc(-c2[nH]c(C3CCC3)nc2Cl)ccc1OCc1ccc(C(F)(F)F)cn1 | 1.94
COc1cc(OCc2ncc(Br)cc2F)ccc1-c1[nH]c(-c2ccc(F)nc2)nc1Br | 1.14
COc1cc(OCc2noc(C3CC3)n2)ccc1-c1cnc(-c2ccc(F)nc2)[nH]1 | 1.88
COc1cc(OCc2ncc(C(F)(F)F)cc2F)ccc1-c1cnc(C2CCC(F)(F)C2)[nH]1 (stereo not shown) | 1.97
Fc1ccc(-c2nc(Cl)c(-c3ccc(OCc4ncc(C(F)(F)F)cc4F)cc3F)[nH]2)cn1 | 0.20

* * *

propertyName: melting point

molecule | propertyName | valueReported
COc1cc(OCc2ccc(C(F)(F)F)cn2)ccc1-c1c(C)nc(-c2ccc(Cl)nc2)n1C | melting point | 152 to 154 °C
COc1cc(O)ccc1-c1[nH]c(-c2ccc(F)nc2)nc1C | melting point | 154 to 159 °C
COc1cc(OCc2cccc(C#N)n2)ccc1-c1c[nH]c(C2CCCCC2)n1 | melting point | 182 to 187 °C
COc1cc(OCc2ccc(Br)cc2F)ccc1-c1c[nH]c(-c2ccncc2)n1 | melting point | 226 to 230 °C
COc1cc(OCc2cnccc2C(F)(F)F)ccc1-c1cnc(-c2ccc(F)nc2)[nH]1 | melting point | 178 to 180 °C
COc1cc(OCc2ccc(C(F)(F)F)nc2)ccc1-c1cnc(-c2ccc(Br)nc2)[nH]1 | melting point | 222 to 224 °C
COc1cc(OCc2ccc(C(F)(F)F)cn2)ccc1-c1c[nH]c(C2CCCCCC2)n1 | melting point | 202 to 204 °C (dec.)
COc1cc(OCc2ncc(C(F)(F)F)cc2F)ccc1-c1[nH]c(C2CCCC2)nc1Cl | melting point | 139 to 142 °C
COc1cc(-c2[nH]c(C3CC(F)(F)C3)nc2Br)ccc1OCc1ccc(C(F)(F)F)cn1 | melting point | 151 to 157 °C
COc1cc(OCc2coc(C)n2)ccc1-c1nc(-c2ccc(Cl)nc2)[nH]c1Cl | melting point | 136 to 155 °C
COc1cc(-c2c[nH]c(-c3ccc(C(F)(F)F)nc3)n2)ccc1OCc1ccc(C(F)(F)F)cn1 | melting point | 201 to 203 °C
COc1cc(OCc2ccnc(C(F)(F)F)c2)ccc1-c1cnc(-c2ccc(F)nc2)[nH]1 | melting point | 212 to 244 °C
COc1cc(OCc2ncc(C(F)(F)F)cc2Cl)ccc1-c1[nH]c(-c2ccc(F)nc2)nc1Br | melting point | 179 to 180 °C
COc1cc(OCc2ncc(Cl)cc2F)ccc1-c1[nH]c(-c2ccc(F)nc2)nc1Br | melting point | 175 to 178 °C
COc1cc(OCc2ccc(Br)cc2F)ccc1-c1c[nH]c(-c2ccccn2)n1 [Example 90] | melting point | 219 to 222 °C
Fc1ccc(-c2nc(Cl)c(-c3ccc(OCc4ncc(C(F)(F)F)cc4F)cc3Cl)[nH]2)cn1 | melting point | 158 to 160 °C
COc1cc(-c2c[nH]c(-c3ccc(Cl)nc3)n2)ccc1OCc1ccc(C(F)(F)F)nc1 | melting point | 179 to 181 °C

Source: patent US10570117B2
